Assay: qHTS assay to identify small molecule antagonists of the androgen receptor (AR) signaling pathway using the MDA cell line - cell viability counter screen (AID 743041; also: nearly all actives have a fitted effect of over 45% in size)
Conditions: MDA-kb2 viability, CellTiter-Fluor, 16 h, cells co-treated with R1881 androgen agonist; series mostly up to 70.3 µM
Inconclusive results are not listed. Active and inactive are the calls of the source. Calls follow the shape of the dose curve; as a rule, active = well fitted cell-killing curve with a large enough effect in the repeat runs; inconclusive = weak or mixed curves, or effect the other way; inactive = flat fitted curve, though single readings scatter.
Classes used: active, inactive

- compound: "CCOP(=S)(OCC)Oc1cc(Cl)c(Br)cc1Cl"
  class-assignment: "inactive"
- compound: "II"
  class-assignment: "inactive"
- compound: "CCCCCCCCCCOC(=O)c1ccccc1C(=O)OCCCCCCCCCC"
  class-assignment: "inactive"
- compound: "OC(c1ccc(Cl)cc1)(c1ccc(Cl)cc1)c1cccnc1"
  class-assignment: "inactive"
- compound: "O=S1(=O)OC(c2cc(Br)c(O)c(Br)c2)(c2cc(Br)c(O)c(Br)c2)c2ccccc21"
  class-assignment: "active"
- compound: "CC(=O)C(C)(C)C"
  class-assignment: "inactive"
- compound: "CCC(Cl)CCl (configuration not stated)"
  class-assignment: "inactive"
- compound: "O=C(OC1CCCCC1)c1ccccc1C(=O)OC1CCCCC1"
  class-assignment: "inactive"
- compound: "CCc1ccc(C(=O)NN(C(=O)c2cc(C)cc(C)c2)C(C)(C)C)cc1"
  class-assignment: "inactive"
- compound: "Nc1ccc(N=Nc2ccc(-c3ccc(N=Nc4c(S(=O)(=O)O)cc5cc(S(=O)(=O)O)c(N=Nc6ccccc6)c(O)c5c4N)cc3)cc2)c(N)c1"
  class-assignment: "inactive"
- compound: "[CH3][Sn]([CH3])([Cl])[Cl]"
  class-assignment: "inactive"
- compound: "C=CCCl"
  class-assignment: "inactive"
- compound: "CCN(C)N=O"
  class-assignment: "inactive"
- compound: "CCBr"
  class-assignment: "inactive"
- compound: "Brc1ccccc1"
  class-assignment: "inactive"
- compound: "O=C(CBr)OCc1ccccc1"
  class-assignment: "inactive"
- compound: "CC(C)(Cl)[N+](=O)[O-]"
  class-assignment: "inactive"
- compound: "CC1C(=O)C[C@]2(C(C)C)C[C@H]12 (some centres not stated)"
  class-assignment: "inactive"
- compound: "Cn1cc[n+](C)c1 (tested in a mixture with another compound)"
  class-assignment: "inactive"
- compound: "[O-][Cl+]O"
  class-assignment: "inactive"
- compound: "COc1c(C(C)(C)C)cc([N+](=O)[O-])c(C)c1[N+](=O)[O-]"
  class-assignment: "inactive"
- compound: "CC(=O)[C@H]1CC[C@H]2[C@@H]3CC[C@H]4C[C@](C)(O)CC[C@]4(C)[C@H]3CC[C@]12C"
  class-assignment: "inactive"
- compound: "COCCOCCO"
  class-assignment: "inactive"
- compound: "NNC(=O)c1cccnc1"
  class-assignment: "inactive"
- compound: "CCCN(CC1CC1)c1c([N+](=O)[O-])cc(C(F)(F)F)cc1[N+](=O)[O-]"
  class-assignment: "inactive"
- compound: "CC(C)(C)c1cc([N+](=O)[O-])cc([N+](=O)[O-])c1O"
  class-assignment: "active"
- compound: "CC[C@H]1C[C@H]2[C@@H]3CCC4=CC(=O)CC[C@@H]4[C@H]3CC[C@]2(C)[C@H]1O"
  class-assignment: "inactive"

Taken from PubChem BioAssay (Tox21).
